- Test system: SEM cells
- method notes: cell viability relative to DMSO control; higher = less cytotoxic
- assay context: HPLM + 10% dialyzed FBS; 48 h; 0.0632 µM
result type: cell viability (%)
# value in %; strip the unit string

Past entries and their recorded results:
COc1cc2nccc(Oc3ccc(NC(=O)Nc4ccc(F)cc4F)c(F)c3)c2cc1OC | 50.7
Cl.c1cnc2cc3c(cc2n1)C1CNCC3C1 | 118
CN(C)CCN(C)CCc1ccc(Cl)c(Cl)c1 | 128
Clc1ccc(C2(c3ccc(-c4cn[nH]c4)cc3)CCNCC2)cc1 | 88.8
Cc1cc(Nc2ncc(Cl)c(Nc3ccccc3[S+](=O)([O-])C(C)C)n2)c(OC(C)C)cc1C1CCNCC1 | 120
COc1cc2c(N3CCN(C(=O)Nc4ccc(OC(C)C)cc4)CC3)ncnc2cc1OCCCN1CCCCC1 | 56.3

Task: Item O=C([O-])Cc1ccccc1Nc1c(Cl)cccc1Cl : provide cell viability
Result: 126

Task: Item Cc1nc(Nc2ncc(C(=O)Nc3c(C)cccc3Cl)s2)cc(N2CCN(CCO)CC2)n1 : provide cell viability
Result: 91.7

Cited source for all entries: the supplement of paper PMC11451515
